Listed here: items and their measured inhibition at 10 µM.
Molecular target: 5-HT uptake (Rattus norvegicus, UniProt P31652)
Construct: from tissue; host or cells: rat brain synaptosomes (P2 fraction) from marrow (medulla) and pons
Sequence (P31652 whole entry): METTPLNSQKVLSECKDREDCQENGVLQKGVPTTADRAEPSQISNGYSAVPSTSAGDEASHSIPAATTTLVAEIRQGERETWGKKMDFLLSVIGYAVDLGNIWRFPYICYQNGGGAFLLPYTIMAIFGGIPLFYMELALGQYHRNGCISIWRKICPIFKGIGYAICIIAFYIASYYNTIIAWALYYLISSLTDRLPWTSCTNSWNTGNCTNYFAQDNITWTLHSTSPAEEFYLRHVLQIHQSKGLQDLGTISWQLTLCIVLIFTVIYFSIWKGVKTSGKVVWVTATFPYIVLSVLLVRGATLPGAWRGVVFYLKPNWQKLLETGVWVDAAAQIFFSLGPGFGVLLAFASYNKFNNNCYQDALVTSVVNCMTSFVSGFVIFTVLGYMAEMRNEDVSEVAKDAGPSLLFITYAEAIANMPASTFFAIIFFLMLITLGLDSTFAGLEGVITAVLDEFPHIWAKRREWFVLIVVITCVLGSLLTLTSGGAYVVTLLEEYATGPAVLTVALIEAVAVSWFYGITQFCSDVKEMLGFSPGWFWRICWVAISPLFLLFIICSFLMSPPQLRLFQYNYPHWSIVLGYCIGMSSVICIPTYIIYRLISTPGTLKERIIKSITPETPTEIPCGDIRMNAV
Assay: Inhibition of 5-HT uptake in rat brain synaptosomes
Format: biochemical
Settings: rat synaptosomes (medulla and pons), [3H]-5-HT
Procedure: The relevant literature reference is enclosed herein by reference and is to be regarded as part of the disclosure. The homogenate is centrifuged at 4° C. for 10 minutes at 1000 g. Following subsequent centrifugation at 17,000 g for 55 minutes, the synaptosomes (P2 fraction) are obtained, which are then resuspended in 0.32 M […] (0.5 mL/100 mg of the original weight). The respective uptake was measured in a 96 well microtiter plate. […]
// return numeric value only (unit: %, not printed)

Solved cases (3 shown):
CCOc1ccccc1C(=O)Nc1nc2c(s1)CCCC2C(=O)N1CCN(c2ccccc2Cl)CC1 (stereo not shown) : 48
CC1CCCCN1CCCNC(=O)C1CCCc2sc(NC(=O)C=Cc3ccco3)nc21 (stereo not shown) : 57
CC(C(=O)Nc1nc2c(s1)CCCC2C(=O)NCCC1CCCN1C)c1ccccc1 (stereo not shown) : 44

Then this compound:
Exam item: Which measured inhibition at 10 µM value corresponds to CN(C)CCN1CCN(C(=O)C2CCCc3sc(NC(=O)CC4CCCCC4)nc32)CC1 (stereo not shown) ?
Marked response: 65

###

Target: 5-HT uptake (Rattus norvegicus, UniProt P31652)
Construct: from tissue; host or cells: rat brain synaptosomes (P2 fraction) from marrow (medulla) and pons
Test: Inhibition of 5-HT uptake in rat brain synaptosomes
Format: biochemical
Settings: rat synaptosomes (medulla and pons), [3H]-5-HT
Experimental: The relevant literature reference is enclosed herein by reference and is to be regarded as part of the disclosure. The homogenate is centrifuged at 4° C. for 10 minutes at 1000 g. Following subsequent centrifugation at 17,000 g for 55 minutes, the synaptosomes (P2 fraction) are obtained, which are then resuspended in 0.32 M […] (0.5 mL/100 mg of the original weight). The respective uptake was measured in a 96 well microtiter plate. […]
readout name: inhibition at 10 µM
Answer by giving the amount and then stating its unit.

Exam item: Which measured inhibition at 10 µM value corresponds to O=C(CC1CCCCC1)Nc1nc2c(s1)CCCC2C(=O)N1CCN(C(c2ccccc2)c2ccccc2)CC1 (stereo not shown) [Example 88] ?
Marked response: 41%

Exam item: Which measured inhibition at 10 µM value corresponds to O=C(CCc1ccccc1)Nc1nc2c(s1)CCCC2C(=O)N1CCN(c2ccc(C(F)(F)F)cn2)CC1 (stereo not shown) [Example 70] ?
Marked response: 44%

Exam item: Which measured inhibition at 10 µM value corresponds to CC(C)(C)CC(=O)Nc1nc2c(s1)CCCC2C(=O)N1CCN(c2ccc(C(F)(F)F)cn2)CC1 (stereo not shown) [Example 86] ?
Marked response: 54%

Exam item: Which measured inhibition at 10 µM value corresponds to COc1ccc(C(=O)Nc2nc3c(s2)CCCC3C(=O)N2CCN(Cc3ccc(Cl)cc3)CC2)cc1 (stereo not shown) [Example 25] ?
Marked response: 53%

###

Target: NA transporter (Rattus norvegicus, UniProt Q63380)
Construct: from tissue; host or cells: rat brain synaptosomes (P2 fraction) from hypothalamus
Sequence (Q63380 1-617): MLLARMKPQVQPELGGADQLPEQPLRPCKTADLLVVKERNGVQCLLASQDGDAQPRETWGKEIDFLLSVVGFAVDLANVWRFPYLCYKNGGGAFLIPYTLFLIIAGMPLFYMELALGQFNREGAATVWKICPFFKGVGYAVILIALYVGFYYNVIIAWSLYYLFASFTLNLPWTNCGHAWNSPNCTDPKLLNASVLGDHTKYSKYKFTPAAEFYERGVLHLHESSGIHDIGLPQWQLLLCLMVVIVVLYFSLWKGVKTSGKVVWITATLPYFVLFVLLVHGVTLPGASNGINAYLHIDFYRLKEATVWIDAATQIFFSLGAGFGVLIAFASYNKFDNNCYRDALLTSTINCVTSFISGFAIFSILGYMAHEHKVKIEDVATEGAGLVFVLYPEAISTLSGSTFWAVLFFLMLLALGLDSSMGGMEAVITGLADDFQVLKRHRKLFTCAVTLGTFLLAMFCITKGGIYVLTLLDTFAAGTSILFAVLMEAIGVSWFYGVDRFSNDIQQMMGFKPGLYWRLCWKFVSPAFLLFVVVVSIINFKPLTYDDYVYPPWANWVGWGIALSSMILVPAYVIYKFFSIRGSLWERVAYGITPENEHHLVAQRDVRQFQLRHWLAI
Experiment: Inhibition of noradrenaline uptake in rat brain synaptosomes
Type: biochemical
Details: 10 μM; rat synaptosomes (hypothalamus), [3H]-NA
Protocol: II. […] For in vitro studies, synaptosomes of rat brain areas are freshly isolated, as described in the article “The isolation of nerve endings from brain” by E. G. Gray and […]. Anatomy 96, pages 79-88, 1962. […] The respective uptake was measured in a 96 well microtiter plate. […] Following sealing with a top seal® (Packard) and following adjustment of the equilibrium (approximately over a period of 5 h), the radioactivity is determined in a 1450 Microbeta® (Wallac). […]
readout name: % Inhibition of NA uptake [10 μM] (%)
// return numeric value only (unit: %, not printed)

O=C(Nc1nc2c(s1)CCCC2C(=O)N1CCN(Cc2cc3ccccc3o2)CC1)c1ccoc1 (stereo not drawn) [Example 17] : 81
CC=CC=CC(=O)Nc1nc2c(s1)CCCC2C(=O)NCC1CCN(Cc2c(Cl)cccc2Cl)C1 (stereo not drawn) [Example 49] : 44
CCOc1ccccc1CN1CCC(CNC(=O)C2CCCc3sc(NC(=O)Cc4cccs4)nc32)C1 (stereo not drawn) [Example 40] : 47
O=C(CC1CCCCC1)Nc1nc2c(s1)CCCC2C(=O)NCC1CCN(Cc2c(Cl)cccc2Cl)C1 (stereo not drawn) [Example 67] : 42
N#Cc1ccccc1N1CCN(C(=O)C2CCCc3sc(NC(=O)c4ccco4)nc32)CC1 (stereo not drawn) [Example 47] : 47

Exam item: Which measured % Inhibition of NA uptake [10 μM] value corresponds to CC(C(=O)Nc1nc2c(s1)CCCC2C(=O)NCC1CCN(Cc2ccccc2OCc2ccccc2)C1)c1ccccc1 (stereo not drawn) [Example 36] ?
Marked response: 62

###

Biological target: 5-HT uptake (Rattus norvegicus, UniProt P31652)
Construct: from tissue; host or cells: rat brain synaptosomes (P2 fraction) from marrow (medulla) and pons
Assay: Inhibition of 5-HT uptake in rat brain synaptosomes
Type: biochemical
Details: rat synaptosomes (medulla and pons), [3H]-5-HT
Listed here: items and their measured % Inhibition of 5-HT uptake [10 μM].
// return numeric value only (unit: %, not printed)

CCCCCCNc1nc2c(s1)CCCC2C(=O)N(C)C1CCN(Cc2cc3ccccc3o2)C1 (centres unmarked) : 77
CCCCCC(=O)Nc1nc2c(s1)CCCC2C(=O)N1CCN(Cc2c(OC)cc(OC)cc2OC)CC1 (centres unmarked) : 63

Exam item: Which measured % Inhibition of 5-HT uptake [10 μM] value corresponds to CN(C)CCNC(=O)C1CCCc2sc(NC(=O)COc3ccccc3)nc21 (centres unmarked) ?
Marked response: 64

Exam item: Which measured % Inhibition of 5-HT uptake [10 μM] value corresponds to CCCCCC(=O)Nc1nc2c(s1)CCCC2C(=O)N1CCN(Cc2ccc(OC)c(F)c2)CC1 (centres unmarked) ?
Marked response: 46

Exam item: Which measured % Inhibition of 5-HT uptake [10 μM] value corresponds to O=C(Cc1cc(F)cc(F)c1)Nc1nc2c(s1)CCCC2C(=O)NCC1CCN(Cc2c(Cl)cccc2Cl)C1 (centres unmarked) ?
Marked response: 53

Exam item: Which measured % Inhibition of 5-HT uptake [10 μM] value corresponds to O=C(Cc1cccs1)Nc1nc2c(s1)CCCC2C(=O)NCCN1CCCCCC1 (centres unmarked) ?
Marked response: 49

Exam item: Which measured % Inhibition of 5-HT uptake [10 μM] value corresponds to CCOc1ccccc1C(=O)Nc1nc2c(s1)CCCC2C(=O)NCCCN(C)c1ccccc1 (centres unmarked) ?
Marked response: 80

Exam item: Which measured % Inhibition of 5-HT uptake [10 μM] value corresponds to O=C(Nc1nc2c(s1)CCCC2C(=O)N1CCN(Cc2ccccc2F)CC1)c1ccc2ccccc2c1 (centres unmarked) ?
Marked response: 42

###

Listed here: items and their measured inhibition at 10 µM.
Molecular target: 5-HT uptake (Rattus norvegicus)
Construct: from tissue; host or cells: rat brain synaptosomes (P2 fraction) from marrow (medulla) and pons
Assay: Inhibition of 5-HT uptake in rat brain synaptosomes
Type: biochemical
Conditions: rat synaptosomes (medulla and pons), [3H]-5-HT
// return numeric value only (unit: %, not printed)

Exam item: Which measured inhibition at 10 µM value corresponds to CN(C)CCCNC(=O)C1CCCc2sc(NC(=O)CC(C)(C)C)nc21 (centres unmarked) ?
Marked response: 89

Exam item: Which measured inhibition at 10 µM value corresponds to CCCC(=O)Nc1nc2c(s1)CCCC2C(=O)N1CCN(Cc2cc3ccccc3o2)CC1 (centres unmarked) ?
Marked response: 61

###

Molecular target: 5-HT uptake (Rattus norvegicus)
Construct: from tissue; host or cells: rat brain synaptosomes (P2 fraction) from marrow (medulla) and pons
Assay: Inhibition of 5-HT uptake in rat brain synaptosomes
Type: biochemical
Details: rat synaptosomes (medulla and pons), [3H]-5-HT
Protocol: The relevant literature reference is enclosed herein by reference and is to be regarded as part of the disclosure. The homogenate is centrifuged at 4° C. for 10 minutes at 1000 g. Following subsequent centrifugation at 17,000 g for 55 minutes, the synaptosomes (P2 fraction) are obtained, which are then resuspended in 0.32 M […] (0.5 mL/100 mg of the original weight). The respective uptake was measured in a 96 well microtiter plate. […]
readout name: % Inhibition of 5-HT uptake [10 μM] (%)
// return numeric value only (unit: %, not printed)

CCCCCC(=O)Nc1nc2c(s1)CCCC2C(=O)N1CCN(Cc2cc3ccccc3o2)CC1 (stereo not drawn) [Example 65] : 44
O=C(Nc1nc2c(s1)CCCC2C(=O)N1CCN(CC(=O)N2CCCC2)CC1)c1ccc2ccccc2c1 (stereo not drawn) [Example 32] : 51
Cc1cc(C)cc(C(=O)Nc2nc3c(s2)CCCC3C(=O)NC2CCN(Cc3ccccc3SC(C)(C)C)C2)c1 (stereo not drawn) [Example 35] : 41
COc1cc(Br)c(CN2CCC(NC(=O)C3CCCc4sc(NC(=O)C(C)c5ccccc5)nc43)C2)cc1OC (stereo not drawn) [Example 33] : 63
O=C(Nc1nc2c(s1)CCCC2C(=O)N1CCN(c2ccccn2)CC1)c1ccoc1 (stereo not drawn) [Example 64] : 48

Exam item: What % Inhibition of 5-HT uptake [10 μM] appears in the records for this molecule with 5-HT uptake (Rattus norvegicus)? CC1CCCCN1CCCNC(=O)C1CCCc2sc(NC(=O)COc3ccccc3)nc21 (stereo not drawn) [Example 42]
Marked response: 42
